I'd be grateful if you could share measured cytotoxicity at 10 µM for these entries.
test: Toxicity liver stage against HepG2, at 10uM
Assay type: cell-based
Design: test concentration 10 uM, cell line HepG2-A16-CD81EGFP
reported conditions: human, HepG2-A16-CD81EGFP cells; read-out: INHIBITION
One number for each entry, in %.

Answered examples (5):
Q: Read off the recorded cytotoxicity at 10 µM for `COCCNC(=O)Cn1cc(OCc2ccccc2F)c(=O)cc1CO`
Result: -173

Q: Give reported cytotoxicity at 10 µM value for `CN(C)c1nc2c(c(=O)[nH]1)Cc1ccccc1OC2`
Result: -104

Q: Using known records, supply cytotoxicity at 10 µM for `O=S(=O)(c1cncc(F)c1)N1CCC2(CCCCC2)C1`
Result: -4.61

Q: Answer with the recorded cytotoxicity at 10 µM of `COc1cccc(-c2ccnc(C3CCNCC3)c2)c1` only.
Result: 56.4

Q: Note down cytotoxicity at 10 µM recorded for O=C(Nc1cccnc1)C1CCCN(c2cc(-n3cccn3)ncn2)C1 (stereo unspecified)
Result: -5.36

The record that follows has no cytotoxicity at 10 µM shown yet.
Q: Please give the documented cytotoxicity at 10 µM of `CC(C)CN1CCc2[nH]cnc2C12CCN(C(=O)c1cnn(C)c1)CC2`
Result: -4.68
